Reported values of Emax for individual entries
# Target Under Test: Human recombinant PDE2A (hPDE2A) (Homo sapiens, UniProt O00408)
# Construct: His tag (inferred from metal chelate purification); made in house; host or cells: Sf9 insect cells (baculovirus)
# Sequence (O00408 whole entry): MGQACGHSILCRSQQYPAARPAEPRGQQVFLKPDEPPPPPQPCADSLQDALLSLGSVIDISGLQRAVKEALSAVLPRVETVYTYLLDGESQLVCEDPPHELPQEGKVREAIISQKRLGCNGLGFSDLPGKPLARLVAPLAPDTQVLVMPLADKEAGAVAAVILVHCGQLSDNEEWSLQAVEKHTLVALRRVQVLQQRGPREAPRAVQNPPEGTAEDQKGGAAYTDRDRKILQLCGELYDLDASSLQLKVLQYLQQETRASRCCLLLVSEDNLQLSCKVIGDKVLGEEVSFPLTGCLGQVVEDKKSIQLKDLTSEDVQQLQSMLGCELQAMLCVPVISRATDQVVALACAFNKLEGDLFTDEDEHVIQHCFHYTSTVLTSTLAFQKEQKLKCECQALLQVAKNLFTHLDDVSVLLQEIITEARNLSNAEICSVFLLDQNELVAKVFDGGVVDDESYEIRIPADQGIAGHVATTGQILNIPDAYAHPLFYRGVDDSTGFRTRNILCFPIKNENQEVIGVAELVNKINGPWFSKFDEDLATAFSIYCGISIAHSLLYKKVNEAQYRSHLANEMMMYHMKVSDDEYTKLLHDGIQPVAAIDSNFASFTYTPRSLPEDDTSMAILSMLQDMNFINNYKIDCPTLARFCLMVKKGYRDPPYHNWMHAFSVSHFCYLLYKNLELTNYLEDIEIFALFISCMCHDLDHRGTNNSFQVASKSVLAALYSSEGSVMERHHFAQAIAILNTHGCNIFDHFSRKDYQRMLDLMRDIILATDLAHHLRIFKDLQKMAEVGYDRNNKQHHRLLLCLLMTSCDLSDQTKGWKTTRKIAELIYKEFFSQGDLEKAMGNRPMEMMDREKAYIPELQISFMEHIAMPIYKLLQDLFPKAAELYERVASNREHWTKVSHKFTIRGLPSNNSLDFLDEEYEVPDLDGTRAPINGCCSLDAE
# Experiment Summary: In vitro assay PDE2A (SPA, 3H-cGMP hydrolysis)
# Type: biochemical
# Measurement Conditions: human recombinant PDE2A; read-out: hPDE2A Emax
Note: unit % is implicit; provide only the numeric part.

Example compounds with recorded Emax:
COc1ccc(C(=O)N2CC[C@@H](C)[C@H](c3cc(C(F)F)nc4ncnn34)C2)cn1 [Compound 196]; 99
Cc1cc([C@@H]2CN(C(=O)c3oc4ccccc4c3C)CC[C@H]2C)n2ncnc2n1 [Compound 7]; 100
Cc1cc([C@@H]2CN(C(=O)c3cc4c(nc3Cl)CCCC4)CC[C@H]2C)n2ncnc2n1 [Compound 12]; 101

Here is the next item to consider.
What value of Emax on Human recombinant PDE2A (hPDE2A) (Homo sapiens, UniProt O00408) does Cc1ccc(C(=O)N2CC[C@@H](C)[C@H](c3cc(C(F)F)nc4ncnn34)C2)nc1C [Compound 85] have?
100

----------
# Target Under Test: Human recombinant PDE10A (hPDE10A) (Homo sapiens)
# Construct: His tag (inferred from metal chelate purification); made in house; host or cells: Sf9 insect cells (baculovirus)
# Experiment Summary: In vitro assay PDE10A, human clone (SPA, 3H-cAMP hydrolysis)
# Assay type: biochemical
# Measurement Conditions: human clone (h), default; read-out: hPDE10A2 Emax
Structures can show the parent of a compound that is named as a salt.
Doc: threshold 90% (exclusive). Items with Emax beneath it return 1 (yes); others return 0 (no).

Worked cases, answers included:
Cc1cc(C(=O)N2CC[C@H](C)[C@@H](c3cc(C(F)F)nc4ncnn34)C2)cc(C)n1 [220 (•HCl)]; 1 (yes)
C[C@@H]1CCN(C(=O)c2ccnc(C3CC3)c2F)C[C@H]1c1cc(C(F)F)nc2ncnn12; 0 (no)
Cc1cc(C)cc(C(=O)N2CC[C@@H](C)[C@H](c3cc(C(F)F)nc4ncnn34)C2)c1; 0 (no)

Please determine if `COc1ccc(C(=O)N2CC[C@@H](C)[C@H](c3cc(C(F)F)nc4ncnn34)C2)cc1OC(F)F` is below 90% in terms of Emax.
0 (no)

Please determine if `C[C@@H]1CCN(C(=O)c2ccn(C)n2)C[C@H]1c1cc(C(F)F)nc2ncnn12` is below 90% in terms of Emax.
1 (yes)

Please determine if CCCC[C@H]1CCN(C(=O)c2cc(C)nc(C)c2)C[C@@H]1c1cc(C(F)F)nc2ncnn12 (single isomer, unassigned) is below 90% in terms of Emax.
1 (yes)

----------
# Target Under Test: Human recombinant PDE10A (hPDE10A) (Homo sapiens, UniProt Q9Y233)
# Construct: His tag (inferred from metal chelate purification); made in house; host or cells: Sf9 insect cells (baculovirus)
# Sequence (Q9Y233 267-1055): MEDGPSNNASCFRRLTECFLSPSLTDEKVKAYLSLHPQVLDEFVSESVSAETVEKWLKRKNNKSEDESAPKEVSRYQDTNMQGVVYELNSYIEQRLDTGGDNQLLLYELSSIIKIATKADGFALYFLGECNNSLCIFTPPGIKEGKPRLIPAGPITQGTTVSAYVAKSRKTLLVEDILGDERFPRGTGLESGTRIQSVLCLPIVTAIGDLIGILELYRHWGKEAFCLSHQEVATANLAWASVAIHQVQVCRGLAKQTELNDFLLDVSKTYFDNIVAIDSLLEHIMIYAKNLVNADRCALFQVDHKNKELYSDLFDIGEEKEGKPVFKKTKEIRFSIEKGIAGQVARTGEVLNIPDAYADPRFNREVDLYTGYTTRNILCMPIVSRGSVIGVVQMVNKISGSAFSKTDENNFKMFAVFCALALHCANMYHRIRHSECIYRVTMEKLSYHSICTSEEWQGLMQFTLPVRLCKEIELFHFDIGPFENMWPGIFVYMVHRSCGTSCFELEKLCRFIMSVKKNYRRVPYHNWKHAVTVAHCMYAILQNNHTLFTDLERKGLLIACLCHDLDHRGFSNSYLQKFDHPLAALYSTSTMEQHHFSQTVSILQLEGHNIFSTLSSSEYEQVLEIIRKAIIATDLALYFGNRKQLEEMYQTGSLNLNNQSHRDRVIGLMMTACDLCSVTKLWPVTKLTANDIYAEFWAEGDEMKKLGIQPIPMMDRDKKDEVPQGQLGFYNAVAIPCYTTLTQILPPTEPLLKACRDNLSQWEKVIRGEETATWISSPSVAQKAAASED
# Experiment Summary: In vitro assay PDE10A, human clone (SPA, 3H-cAMP hydrolysis)
# Format: biochemical
# Measurement Conditions: human clone (h), default; read-out: hPDE10A2 pIC50 (converted)
Measured Parameter: log10(IC50) (log10 of the value in µM)
Response schema: value (number) is log10 of IC50 in units of µM.

Example molecules with recorded log10(IC50):
Cc1cc([C@@H]2CN(C(=O)c3cc(C)c(F)c(C)c3)CC[C@H]2C)n2ncnc2n1; -2.01
C[C@@H]1CCN(C(=O)c2ccc(F)c(F)c2F)C[C@H]1c1cc(C(F)F)nc2ncnn12; 0.34

Name the reported log10(IC50) value associated with the molecule `C[C@@H]1CCN(C(=O)c2cc(C#N)ccn2)C[C@H]1c1cc(C(F)F)nc2ncnn12`
0.51

----------
# Target Under Test: Human recombinant PDE10A (hPDE10A) (Homo sapiens)
# Construct: His tag (inferred from metal chelate purification); made in house; host or cells: Sf9 insect cells (baculovirus)
# Experiment Summary: In vitro assay PDE10A, human clone (SPA, 3H-cAMP hydrolysis)
# Assay type: biochemical
# Measurement Conditions: human clone by default (no (r) mark); read-out: hPDE10A2 or rPDE10A2 pIC50 (converted)
Categories are assigned from the measured IC50 using these intervals: low end (below 200 nM), middle (200 nM to below 3000 nM), high end (3000 nM or more)

CN(C)c1ccc(C(=O)N2[C@H]3CC[C@H](c4cc(C(F)F)nc5ncnn45)[C@@H]2CC3)cc1 [Compound 362]; middle
Cn1ccc2cc(C(=O)N3[C@H]4CC[C@H](c5cc(C(F)F)nc6ncnn56)[C@@H]3CC4)ccc21 [Compound 295]; middle
Cc1cc(C(=O)N2CC[C@@H](C)[C@H](c3cc(C)nc4ncnn34)C2)cc(OC(F)F)n1 [Compound 275]; low end
O=C(c1ccc2cccn2c1)N1[C@H]2CC[C@H](c3cc(C(F)F)nc4ncnn34)[C@@H]1CC2 [Compound 291]; middle
O=C(c1ccc(F)c(C(F)(F)F)c1)N1[C@H]2CC[C@H](c3cc(C(F)F)nc4ncnn34)[C@@H]1CC2 [Compound 357]; high end
C[C@@H]1CCN(C(=O)c2cncnc2)C[C@H]1c1cc(C(F)F)nc2ncnn12 [Compound 249]; high end

For this compound, which bin applies? CCCC[C@H]1CCN(C(=O)c2cc(C)nc(C)c2)C[C@H]1c1cc(C(F)F)nc2ncnn12 (mixture of isomers) [Compound 219]
high end

For this compound, which bin applies? C[C@@H]1CCN(C(=O)c2ccc(C3CC3)c(C3CC3)c2)C[C@H]1c1cc(C(F)F)nc2ncnn12 [Compound 226]
low end

For this compound, which bin applies? O=C(c1ccc(OC(F)(F)F)c(F)c1)N1[C@H]2CC[C@H](c3cc(C(F)F)nc4ncnn34)[C@@H]1CC2 [Compound 342]
middle

----------
# Target Under Test: Human recombinant PDE10A (hPDE10A) (Homo sapiens)
# Construct: His tag (inferred from metal chelate purification); made in house; host or cells: Sf9 insect cells (baculovirus)
# Experiment Summary: In vitro assay PDE10A, human clone (SPA, 3H-cAMP hydrolysis)
# Type: biochemical
# Measurement Conditions: human clone (h), default; read-out: hPDE10A2 Emax
Measured Parameter: Emax (%)
Note: unit % is implicit; provide only the numeric part.

Example compounds with recorded Emax:
Cc1csc(C(=O)N2CC[C@@H](C)[C@H](c3cc(C(F)F)nc4ncnn34)C2)c1; 97
Cc1cc(C(=O)N2CC[C@@H](C)[C@H](c3cc(C(F)F)nc4ncnn34)C2)no1; 75

Name the reported Emax value associated with the compound `C[C@@H]1CCN(C(=O)c2cncn2C)C[C@H]1c1cc(C(F)F)nc2ncnn12`
82

Name the reported Emax value associated with the compound `C[C@@H]1CCN(C(=O)c2ccn(C)c2)C[C@H]1c1cc(C(F)F)nc2ncnn12`
94

Name the reported Emax value associated with the compound `Cc1cc(C(=O)N2[C@H]3CC[C@@H]2[C@H](c2cc(C(F)F)nc4ncnn24)CC3)c(F)cn1`
36

Name the reported Emax value associated with the compound `C[C@@H]1CCN(C(=O)c2cnc(Br)s2)C[C@H]1c1cc(C(F)F)nc2ncnn12`
95

Name the reported Emax value associated with the compound `Cc1cc(C(=O)N2CC[C@@H](C)[C@H](c3cc(C(F)F)nc4ncnn34)C2)cc(C)c1Cl`
101

Name the reported Emax value associated with the compound `C[C@@H]1CCN(C(=O)c2cc(C#N)ccn2)C[C@H]1c1cc(C(F)F)nc2ncnn12`
74

----------
# Target Under Test: Human recombinant PDE3A (hPDE3A) (Homo sapiens, UniProt Q14432)
# Construct: purchased Scottish Biomedical; host or cells: Sf9 insect cells
# Sequence (Q14432 whole entry): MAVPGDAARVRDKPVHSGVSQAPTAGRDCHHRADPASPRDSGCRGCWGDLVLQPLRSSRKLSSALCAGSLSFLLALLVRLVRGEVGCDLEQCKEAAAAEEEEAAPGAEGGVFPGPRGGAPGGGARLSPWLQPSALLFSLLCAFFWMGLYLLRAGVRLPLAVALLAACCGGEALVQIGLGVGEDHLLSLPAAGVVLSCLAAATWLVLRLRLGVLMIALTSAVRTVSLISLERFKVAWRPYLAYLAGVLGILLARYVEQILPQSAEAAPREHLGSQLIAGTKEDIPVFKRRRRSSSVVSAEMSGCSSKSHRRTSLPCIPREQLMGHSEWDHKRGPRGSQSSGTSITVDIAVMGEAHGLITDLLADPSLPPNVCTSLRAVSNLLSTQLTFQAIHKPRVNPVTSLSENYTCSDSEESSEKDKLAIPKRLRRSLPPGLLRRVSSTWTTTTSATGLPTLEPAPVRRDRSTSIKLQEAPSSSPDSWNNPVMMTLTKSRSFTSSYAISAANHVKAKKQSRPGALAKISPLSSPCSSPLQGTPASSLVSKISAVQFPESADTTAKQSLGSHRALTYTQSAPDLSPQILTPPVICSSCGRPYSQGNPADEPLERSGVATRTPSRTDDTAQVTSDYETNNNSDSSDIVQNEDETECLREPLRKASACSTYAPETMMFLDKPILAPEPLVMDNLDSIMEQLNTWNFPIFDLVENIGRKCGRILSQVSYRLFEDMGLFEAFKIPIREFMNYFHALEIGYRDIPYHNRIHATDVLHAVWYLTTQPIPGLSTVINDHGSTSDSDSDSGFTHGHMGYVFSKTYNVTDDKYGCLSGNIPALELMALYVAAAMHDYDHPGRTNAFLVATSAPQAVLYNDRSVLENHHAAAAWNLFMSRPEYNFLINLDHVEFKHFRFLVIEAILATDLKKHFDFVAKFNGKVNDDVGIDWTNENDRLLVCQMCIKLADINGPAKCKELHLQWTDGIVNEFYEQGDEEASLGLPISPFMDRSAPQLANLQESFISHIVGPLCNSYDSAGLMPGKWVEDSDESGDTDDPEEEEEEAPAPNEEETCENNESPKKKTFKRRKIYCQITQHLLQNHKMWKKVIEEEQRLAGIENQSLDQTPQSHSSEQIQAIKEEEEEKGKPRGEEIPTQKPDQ
# Experiment Summary: In vitro assay PDE3A (SPA, 3H-cAMP hydrolysis);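 note: the method names PDE3A and the table heading PDE3B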
# Assay type: biochemical
Reported values of hPDE3B Emax for individual entries

Name the reported hPDE3B Emax value associated with the molecule Cc1cc(C(=O)N2[C@H]3CC[C@H](c4cc(C(F)F)nc5ncnn45)[C@@H]2CC3)cc(C)n1 (racemic) [Compound 31]
8

Name the reported hPDE3B Emax value associated with the molecule `Cc1cc(C(=O)N2CC[C@H](C)[C@@H](c3cc(C)nc4ncnn34)C2)cc(C)n1`
13

Name the reported hPDE3B Emax value associated with the molecule Cc1cc(C(=O)N2[C@H]3CC[C@H](c4cc(C(F)F)nc5ncnn45)[C@@H]2CC3)cc(C)n1 [Compound 29]
18

Name the reported hPDE3B Emax value associated with the molecule Cc1cc(C(=O)N2CC[C@@H](C)[C@H](c3cc(C#N)nc4ncnn34)C2)cc(C)n1 [Compound 26a]
0

Name the reported hPDE3B Emax value associated with the molecule Cc1cc(C(=O)N2CC[C@@H](C)[C@](F)(c3cc(C(F)F)nc4ncnn34)C2)cc(C2CC2)n1 [Compound 24b]
28

Name the reported hPDE3B Emax value associated with the molecule O=C(c1ccc2ncsc2c1)N1[C@H]2CC[C@@H]1[C@H](c1cc(C(F)F)nc3ncnn13)CC2 [Compound 25b]
37

Name the reported hPDE3B Emax value associated with the molecule Cc1cc(C(=O)N2CC[C@H](C)[C@@H](c3cc(C#N)nc4ncnn34)C2)cc(C)n1 [Compound 26b]
41

Name the reported hPDE3B Emax value associated with the molecule `O=C(c1ccnc2ccccc12)N1[C@H]2CC[C@H](c3cc(C(F)F)nc4ncnn34)[C@@H]1CC2`
11
